Tested on: CRL-7250
protocolNotes: Cytotoxic Profiling of Annotated Libraries Using Quantitative High-Throughput Screening (AID 1296008); note: % is set by controls: 0 for no effect and ±100 for the full control effect; nearly all actives have a fitted effect of over 60% in size
statedConditions: Five cell lines viability, CellTiter-Glo ATP luminescence, 48-72 h; active compounds read low
Records with an inconclusive call do not appear.
measuredParameter: max response (%)
Provide the reading as a plain figure in %.

See these solved cases before continuing.
{"compound": "O=c1cc(-c2ccccc2)oc2cc(O)cc(O)c12", "targetOrSystem": "CRL-7250", "max response (%)": -20.5}
{"compound": "Cc1ccccc1C(C(=O)NC1CCCCC1)N(C(=O)Cn1ccnc1C)c1cccc(F)c1 (stereo unspecified)", "targetOrSystem": "CRL-7250", "max response (%)": -5.16}
{"compound": "CCS(=O)(=O)N1CC(CC#N)(n2cc(-c3ncnc4[nH]ccc34)cn2)C1", "targetOrSystem": "CRL-7250", "max response (%)": -3.54}
{"compound": "NC(CO)(CO)CCc1ccc(Sc2cccc(OCc3ccccc3)c2)cc1Cl", "targetOrSystem": "CRL-7250", "max response (%)": -10.2}
{"compound": "CC(C(=O)O)c1ccc(-c2ccccc2)c(F)c1 (stereo unspecified)", "targetOrSystem": "CRL-7250", "max response (%)": 2.91}

Reported max response of Cc1cnc(C(=O)O)c[n+]1[O-] : 4.3

GET /value?item= COc1ccc2cc(-c3nc(-c4ccc(S(C)=O)cc4)[nH]c3-c3ccncc3)ccc2c1 (stereo unspecified) &field=max response returns -4.22

Sample C[N+](C)(C)CCCCCC[N+](C)(C)C ; max response observed: -5.15

Note to self: max response recorded for COc1ccc2c3c1OC1C[C@@H](O)C=C[C@@]31CCN(C)C2 (stereo partly specified) was -0.2

Looking up CC=C(C)C(=O)O[C@H]1C(C)=C[C@]23C(=O)[C@@H](C=C(CO)[C@@H](O)[C@]12O)[C@H]1[C@@H](C[C@H]3C)C1(C)C , I see its max response listed as 2.46

Value of max response reported for the compound CC(=O)Oc1cc2c(s1)CCN(C(C(=O)C1CC1)c1ccccc1F)C2 (stereo unspecified) is 4.12
